biological target: E3 ubiquitin-protein ligase XIAP (Homo sapiens); test: XIAP binders, primary screen, biophysical, small-molecule microarray, fluorescence 635 nm (AID 1181); settings: small-molecule microarray binding, higher = more signal;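 also: score merges 667 nm emission and signal to noise over triplicate slides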
experimental readout: composite z-score
Respond with the number and no other words.

Task: Requested read-out: composite z-score. Entry: "CO[C@H]1COC(=O)[C@H](Cc2ccccc2)NC(=O)CC=C[C@@H](C)[C@H](OC)COC(=O)CC=C[C@@H]1C"
Result: 0.0525

Task: Same lookup for O=C1C2C=CC(C(O)C(c3ccccc3)c3ccccc3)N(Nc3ccc([N+](=O)[O-])cc3)C2C(=O)N1c1ccccc1 (configuration not stated) , please.
Result: 0.0553

Task: Next compound up: "O=C1c2ccccc2[C@](Cc2ccccc2I)(C(=O)NCC(F)(F)F)[C@H](c2ccc(CO)cc2)N1Cc1ccccc1C(F)(F)F"
Result: -0.174

Task: Also "CCCC[C@@H]1C[C@H]1[C@@H](NC(=O)c1cccs1)c1ccc(Cl)cc1" ?
Result: 0.267

Task: Try this compound next: "COCCOC(=O)N1C(=O)[C@@]2(c3cc(C#CCCO)ccc31)[C@H](C(=O)N1CCCCCCC1)[C@H]1C(=O)O[C@H](c3ccccc3)[C@H](c3ccccc3)N1[C@@H]2c1ccc(O)cc1"
Result: 0.144

Task: Now consider "CO[C@H]1COC(=O)[C@H](C)COC(=O)[C@H](Cc2ccccc2)NC(=O)CC=C[C@H]1C" .
Result: -0.267

Task: Now give it for "O=C1c2ccccc2[C@](Cc2ccccc2I)(C(=O)NCc2ccccc2)[C@H](c2ccc(CO)cc2)N1Cc1ccccc1C(F)(F)F" too.
Result: -0.17

Task: Can you handle "Cc1ccc(N2C(=O)c3ccccc3[C@](C)(C(=O)NCC(C)C)[C@@H]2c2ccc(CO)cc2)nc1" next?
Result: -0.0095

Task: Lookup "COc1ccc(-c2ccccc2[C@@H]2N[C@H](C(=O)O)CC[C@H]2C)cc1"
Result: -0.113

Task: Next compound up: N#Cc1ccc(NN2C(C(O)c3ccc(I)cc3)C=CC3C(=O)N(c4ccccc4)C(=O)C32)cc1 (configuration not stated)
Result: -0.256

Task: Same lookup for "COCCOC(=O)N1C(=O)[C@@]2(c3cc(C#CCCO)ccc31)[C@H](c1ccc(OCCO)cc1)N1[C@H](c3ccccc3)[C@H](c3ccccc3)OC(=O)[C@H]1[C@@H]2C(=O)NC[C@H](O)c1ccccc1" , please.
Result: 0.106

Task: Also, "COc1ccc([Si](C)(C)[C@H]2[C@H](CC(=O)N3Cc4ccccc4C[C@H]3CO)O[C@@]3(C(=O)N(Cc4cccc(N5CCOC5=O)c4)c4ccccc43)[C@@H]2C)cc1" please.
Result: 0.22

Task: Here is the next compound: "COCCOC(=O)N1C(=O)[C@@]2(c3cc(C#CCNC(N)=O)ccc31)[C@H](C(=O)N1CCCCCCC1)[C@H]1C(=O)O[C@H](c3ccccc3)[C@H](c3ccccc3)N1[C@@H]2c1ccccc1OCCO"
Result: 0.291

Task: Now give it for O=C1C2C=CC(C(O)Cc3ccccc3)N(Nc3ccc([N+](=O)[O-])cc3)C2C(=O)N1c1ccccc1 (configuration not stated) too.
Result: 0.202

Task: "CSCC[C@@H]1NC(=O)CC=C[C@@H](C)COC(=O)[C@H](CCSC)NC(=O)CC=C[C@@H](C)COC1=O" , same question.
Result: -0.243

Task: Same question for "C=CC[C@]1(C(=O)O)N=C(c2ccc(OCCCO)cc2)O[C@H]1c1ccccc1N=[N+]=[N-]" please.
Result: -0.0095

Task: Try this compound too: "CC(C)[Si]1(C(C)C)OCc2cc(C3CC3)nc(-c3ccccc3)c21"
Result: 0.0399

Task: Same thing, different compound: "CCN1C(C)=C(C(=O)OC)[C@@H](c2ccccc2)N2C(=O)[C@@]3(C(=O)OC)O[C@@]12[C@@H]1C(=O)N(c2ccccc2)C(=O)[C@@H]13"
Result: -0.18

Task: Field entry: "CCCCCCc1nc(-c2cc(C)c(OC)c(C)c2)cc2c1[Si](C(C)C)(C(C)C)O[C@H]2c1ccccc1"
Result: -0.244

Task: Also "COC(=O)c1c(CC[C@@H](CO)NC(=O)N[C@H](Cn2cc(-c3cncn3C)nn2)C(C)C)oc(C(C)=O)c1C(=O)OC" , if possible.
Result: -0.0884

Task: Then "O=C1O[C@@H](c2ccccc2)[C@@H](c2ccccc2)N2[C@@H](c3ccc(O)cc3)[C@]3(C(=O)Nc4ccc(C#CC5(O)CCCCCC5)cc43)[C@@H](C(=O)Nc3nc4ccccc4s3)[C@H]12" ?
Result: -0.184

Task: Next record, please: "CCOC(=O)C[C@H]1[C@H](OC(=O)c2ccccc2-c2ccccc2)[C@@H](NC(=O)C2CCCCC2)c2cc(OCCCO)ccc2N1C(=O)c1ccccc1"
Result: -0.0351

* * *

biological target: NADPH oxidase 5 (Homo sapiens); assay: NOX5-dependent H2O2 signal modulators, primary screen, NOX inhibitor project, cell-based, HEK293-NOX5, Amplex Red fluorescence (AID 1161); settings: HEK293-NOX5, ionomycin, 45 min, higher = more signal
// thresholds for z-score classes: bottom = under -0.6, middle = from -0.6 up to 0.008, top = 0.008 and over

Task: Form field 'band' for "C=C(COC)/C(=C/C[C@@H](OC(=O)c1ccncc1)c1ccc(OCCO)cc1)c1cc(C(=O)OC)ccc1OC"
Result: bottom

Task: Record: O=C1C2C=CC(C(O)c3ccccc3)N(n3cnnc3)C2C(=O)N1Cc1ccccc1 (configuration not stated)
Result: middle

Task: Now the same for "CC(C)[Si]1(C(C)C)O[C@@H](c2ccccc2)c2cc(C3CC3)nc(-c3ccc(Oc4ccccc4)cc3)c21"
Result: top

Task: # iterate: "COCCOC(=O)N1C(=O)[C@@]2(c3cc(C#CCC(C(=O)OC)C(=O)OC)ccc31)[C@H](C(=O)N1CCN(c3ncccn3)CC1)[C@H]1C(=O)O[C@H](c3ccccc3)[C@H](c3ccccc3)N1[C@@H]2c1ccc(O)cc1"
Result: top

Task: Field entry: "CCCCCCc1nc(C2CC2)c(C)c2c1[Si](C(C)C)(C(C)C)OC2"
Result: bottom

Task: Try the compound "Cc1ccc(S(=O)(=O)N[C@H]2COC(=O)CC=C[C@H](C)COC(=O)N[C@@H](C)C(=O)CC=C[C@@H]2C)cc1"
Result: middle

Task: What do you get for "COc1cc([C@@H]2N[C@H](C(=O)O)Cc3c2[nH]c2ccccc32)cc(OC)c1OC" ?
Result: bottom

Task: Can you handle "NC(=O)NCC#Cc1ccc2c(c1)[C@]1(C(=O)N2)[C@H](C(N)=O)[C@H]2C(=O)O[C@H](c3ccccc3)[C@H](c3ccccc3)N2[C@@H]1c1ccccc1OCCO" next?
Result: top

Task: Now give it for "COCCOC(=O)N1C(=O)[C@@]2(c3ccccc31)[C@H](C(=O)N1CCc3cc(OC)c(OC)cc3C1)[C@H]1C(=O)O[C@H](c3ccccc3)[C@H](c3ccccc3)N1[C@@H]2c1ccccc1OCCO" too.
Result: middle

Task: Consider next the compound "O=C1C[C@@](C(=O)NCCN2CCOCC2)(c2ccc([N+](=O)[O-])cc2)[C@@H](c2ccc(CO)cc2)N1C1CCCCC1" in the same way.
Result: top

Task: Another compound: "CC1=C([C@H](O)CCc2ccccc2)[C@H](CO)[C@@H]2C(=O)N(Cc3ccccc3)C(=O)[C@@H]2C1"
Result: bottom

Task: Also need "O=C1c2ccccc2[C@](Cc2ccccc2I)(C(=O)NCc2ccccc2)[C@H](c2ccc(CO)cc2)N1Cc1ccccc1C(F)(F)F" , thanks.
Result: top

Task: Let us now turn to "C[N+](C)(C)CCCCNC(=O)[C@@H]1C[C@@H]2C(=O)N3CCC[C@H]3C(=O)N2[C@@H]1c1cccc(OCCO)c1"
Result: bottom

Task: Input "CCOC(=O)C1=C[C@@H](c2ccccc2)N(S(=O)(=O)c2ccc(C)cc2)[C@H]1c1ccc(F)cc1"
Result: middle

Task: Can you check "CC(C)C[C@@H]1NC(=O)[C@H]2C[C@@H](C(=O)NCCCCCC[N+](C)(C)C)[C@@H](c3ccc(O)cc3)N2C1=O" next?
Result: middle

Task: Could you do the same for "CCCCCCc1nc(-c2cc(C)c(OC)c(C)c2)cc2c1[Si](C(C)C)(C(C)C)O[C@H]2c1ccccc1" , please?
Result: bottom

* * *

test: cell viability in Huh7 cells, primary screen, cytotoxicity control for HCV replication inhibitor project, CellTiter-Glo luminescence, basal, 48 h (AID 1143); conditions: Huh7 HCV replicon, higher = more signal, called active from +8 up or from −8 down;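 also: Huh7 hepatoma cells carrying a hepatitis C replication reporter with no stimulus; test concentration not given here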
experimental readout: z-score
Please state the value as a number alone, without comment.

Task: Endpoint output: z-score of "CO[C@H]1COC(=O)[C@H](C)NC(=O)CC=C[C@@H](C)[C@H](NS(=O)(=O)c2ccc(C)cc2)COC(=O)CC=C[C@@H]1C" . Value?
Result: -0.831

Task: For "O=C(N1CCCCC1)[C@@]1(CCS(=O)(=O)c2ccccc2)N=C(c2ccc(OCCCO)cc2)O[C@H]1c1ccccc1" then?
Result: -5.06

Task: How about "O=C1O[C@@H](c2ccccc2)[C@@H](c2ccccc2)N2[C@@H](c3ccc(OCCO)cc3)[C@]3(C(=O)Nc4ccc(C#CCCO)cc43)[C@@H](C(=O)N3CCN(c4ncccn4)CC3)[C@H]12" ?
Result: -0.284

Task: Please give the result for "COc1ccc(-c2cc3c(c(-c4ccccc4)n2)[Si](C(C)C)(C(C)C)O[C@H]3c2ccccc2)cn1" too.
Result: 0.0834

Task: Do the same for "C=C(COC)/C(=C/C[C@@H](OC(C)=O)c1cccc(OCCO)c1)c1cc(C(=O)OC)ccc1OC" please
Result: -1.42

Task: Another molecule to check: C=CC(=O)O[C@@H](Cc1ccccc1)[C@H]1C2C=CCCC=C2CN1Cc1cccc(Cl)c1 (some centres undefined)
Result: -0.904

Task: And the next one, C=CCC(OC(C)=O)[C@@H]1[C@@H](N(Cc2ccc(-c3ccccc3)cc2)C(=O)c2ccc(C)cc2)c2cc(OCCCO)ccc2N1C(=O)c1ccc(-c2ccccc2)cc1 (some centres undefined) ?
Result: -1.62

Task: Cool, now "CCOC(=O)[C@H]1C/C=C/C[C@H](C(=O)OCC)C(=O)O[C@H]2[C@@H](OC)O[C@H](CO)[C@@H](OC(=O)Nc3ccc(Br)cc3)[C@@H]2OC1=O"
Result: -6.64

Task: Next: O=C1C2C=CC(C(O)C(c3ccccc3)c3ccccc3)N(Nc3ccc([N+](=O)[O-])cc3)C2C(=O)N1c1ccccc1 (centres undefined)
Result: -0.664

Task: Another molecule to check: COC(=O)C1=CC(c2ccc(CO)cc2)=CC(C2CC2)N(Cc2sc3ccccc3c2Cl)C=C1C(=O)OC (centres undefined)
Result: -5.35

Task: Do the same for CC(C)[C@H]1NC(=O)[C@@]23C(=O)N[C@@H](Cc4ccccc4)C2[C@H](C)[C@@]2(C)O[C@H]2C3/C=C/C/C=C\CNC(=O)[C@H](C)NC1=O (some centres undefined) please
Result: -0.131

Task: And then "C=C(COC)C(=O)CC[C@H](OC(=O)c1ccccc1-c1ccccc1C(=O)O)c1cccc(OCCO)c1" , what is it?
Result: -8.1

Task: Now the molecule "COc1ccc(CCNC(=O)[C@@]2(c3ccc([N+](=O)[O-])cc3)CC(=O)N(C(C)C)[C@@H]2c2ccc(CO)cc2)cc1"
Result: -3.13

Task: Please do the same for "COCCOC(=O)N1C(=O)[C@@]2(c3cc(C#CCNC(N)=O)ccc31)[C@H](C(=O)N1CCCCCCC1)[C@H]1C(=O)O[C@H](c3ccccc3)[C@H](c3ccccc3)N1[C@@H]2c1ccccc1OCCO" as well.
Result: -0.798

Task: "CC(C)NC(=O)[C@@]1(Cc2ccccc2I)c2ccccc2C(=O)N(C2CCCCC2)[C@H]1c1ccc(CO)cc1" , same question.
Result: -3.83

Task: Further, for "C=C(COC)/C(=C/C[C@H](OC(C)=O)c1ccc(OCCO)cc1)c1cnc2ccccc2c1" ?
Result: -0.843

Task: And the next one, "C[C@@H]1CC[C@H]2C(=O)N3[C@@H](CC[C@@H](C)[C@@H]3c3cccc(N4CCOCC4)c3)C(=O)N2[C@H]1c1cccc(N2CCOCC2)c1" ?
Result: -0.334

Task: Same again, this time with "CCCC=C(CCC)[C@@H](NS(=O)(=O)c1ccc(-c2ccccc2)cc1)c1ccc(C(=O)OC)cc1"
Result: -3.56

Task: Thanks! And "O=C1O[C@H](c2ccccc2)[C@H](c2ccccc2)N2[C@H]1[C@@H](C(=O)Nc1nc3ccccc3s1)[C@]1(C(=O)Nc3ccc(C#CC4=CCCCC4)cc31)[C@H]2c1ccccc1OCCO" ?
Result: -4.26

Task: Same for "O=C(NCc1ccccc1)c1ccc(Br)cc1[N+](=O)[O-]"
Result: -0.214

Task: Another molecule: "CC(C)=C1C(=O)C(c2ccccc2)=C2CN3C(=O)N(CCc4ccccc4)C(=O)[C@]3(Cc3ccccc3)[C@H]21"
Result: -0.462

Task: Now consider CN1C2C=C(c3ccc(CO)cc3)C(C3C(=O)N(C(N)=O)C(=O)C32)C1c1cccs1 (centres undefined) .
Result: -0.975

Task: Next molecule up: "CO[C@H]1O[C@H](CO)[C@@H](OC(=O)CCc2ccccc2)[C@@H]2OC(=O)[C@H](Cc3cccc(Br)c3)C/C=C/C[C@@H](Cc3cccc(Br)c3)C(=O)O[C@@H]12"
Result: -3.47

Task: Another molecule: "COCCOC(=O)N1C(=O)[C@@]2(c3cc(C#CCCO)ccc31)[C@H](c1ccc(OCCO)cc1)N1[C@H](c3ccccc3)[C@H](c3ccccc3)OC(=O)[C@H]1[C@@H]2C(=O)NC[C@H](O)c1ccccc1"
Result: -2.79
